Target: GPR139 (Homo sapiens, UniProt Q6DWJ6)
Construct: host or cells: CHO-k1
Sequence (Q6DWJ6 whole entry): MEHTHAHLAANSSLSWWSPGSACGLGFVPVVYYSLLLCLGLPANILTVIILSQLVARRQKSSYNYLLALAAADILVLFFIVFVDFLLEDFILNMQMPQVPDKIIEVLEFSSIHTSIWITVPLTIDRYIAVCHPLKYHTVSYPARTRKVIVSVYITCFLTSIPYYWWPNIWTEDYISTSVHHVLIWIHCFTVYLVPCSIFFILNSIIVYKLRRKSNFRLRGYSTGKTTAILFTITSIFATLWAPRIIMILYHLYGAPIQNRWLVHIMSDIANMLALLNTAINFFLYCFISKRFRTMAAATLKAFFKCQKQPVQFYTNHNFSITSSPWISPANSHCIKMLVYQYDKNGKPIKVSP
Assay: Fluo-4 calcium mobilization assay, agonist mode, concentration-response curves in CHO-GPR139 cells
Assay type: cell-based
Details: Table S1, 11 primary screen hits
Description: All compounds were tested on a CHO-k1 cell line stably expressing GPR139 (CHO-GPR139)[11] kindly provided by H. Lundbeck A/S, Denmark. GPR139-specific responses were assessed using a CHO-k1 cell line stably expressing the muscarinic acetylcholine receptor M1 (CHO-M1) (The Missouri S&T cDNA Resource Center, # CEM100TN00). […]
Note to self: values exactly at 5 are Fulfilled. So pEC50 ± S.E.M. at or above 5 is Fulfilled, below is Not fulfilled.

In [3]: df
Out[3]:
                                   molecule                            system_name    label_value
0  CC(C)OCCCNC(=O)NC(C)c1ccc2c(c1)OCO2 (stereo not drawn) [AC12]  GPR139 (Homo sapiens, UniProt Q6DWJ6)      Fulfilled
1  CC1(C2CC2)NC(=O)N(CC(=O)N2CCCSc3ccccc32)C1=O (stereo not drawn) [AC11]  GPR139 (Homo sapiens, UniProt Q6DWJ6)      Fulfilled
2  O=C(NCCc1cc(Cl)c2c(c1)OCCO2)NCc1cccnc1-n1ccnc1 [AC37]  GPR139 (Homo sapiens, UniProt Q6DWJ6)      Fulfilled
3  Cc1ccc(CNC(=O)NCC2CN(CC(C)C)CCO2)cc1 (stereo not drawn) [AC13]  GPR139 (Homo sapiens, UniProt Q6DWJ6)  Not fulfilled
4  Cc1ccc(C2(C)NC(=O)N(Cc3cn4cc(Cl)ccc4n3)C2=O)cc1 (stereo not drawn) [AC10]  GPR139 (Homo sapiens, UniProt Q6DWJ6)      Fulfilled
